Every entry's value here was drawn from PubChem BioAssay AID1962.

Item-by-item account of inhibition
System: tRNA 2'-phosphotransferase TPT1 (Candida albicans SC5314)
protocol_description: tRNA 2'-phosphotransferase blockers, C. albicans – biochemical, fluorescence polarization, primary screen (AID 1962);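 note: plate controls were DMSO alone for no effect and ferristatin control at 100 nM for full effect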
applied_conditions: recombinant caTPT1, FP RNA substrate dephosphorylation; at 5 µM; active compounds read high
The whole screen tested about 300,000 compounds, of which about 2,500 (0.83%) were called active. This excerpt belongs to a sample that is enriched for actives.
property_label: inhibition (%)

compound	display_unit	reading
C#CCOCCOCCOCCNc1nc(N2CCN(C(=O)CCCCCCCCCCNC(=O)[C@H](CCCCN)n3cc(C)nn3)CC2)nc(N2CCN(C(=O)CCCCCCCCCCNC(=O)[C@H](CO)n3cc(CCCSC)nn3)CC2)n1	%	0.52
O=C(NCCCN1CCOCC1)c1cnn2c(-c3ccccc3)cc(-c3ccccc3)nc12	%	-0.23
CC(C)(C)C1C/C(=C/c2ccco2)C(=O)/C(=C/c2ccco2)C1 (stereo not drawn)	%	71.8
CN1CCN(Cc2nc3cc(NC(=O)COc4ccc([N+](=O)[O-])cc4)ccc3n2C)CC1	%	-2.77
Cc1ccc(S(=O)(=O)N2CCN=C2SCc2c(F)cccc2Cl)cc1	%	-3.87
CCC1C/C(=C/c2cccs2)C(=O)/C(=C/c2cccs2)C1 (stereo not drawn)	%	14.5
COc1ccc(CCN2C(=O)C(C)=C(C)C2=O)cc1OC	%	1.36
Cc1cc(O)c(C(=O)/C=C/c2c(F)c(F)c(F)c(F)c2F)c(=O)o1	%	44.1
O=S(=O)(O)Oc1c[nH]c2ccccc12	%	25.4
CCCCCCCCn1c2c(c(=N)c3c1CCC3)CCCC2	%	-2.44
CCCCCCc1ccc(O)cc1O	%	2.21
Cc1ccc(Nc2ccc(C(N)=O)cc2[N+](=O)[O-])cc1	%	-0.98
CC(C)CCN1NC2(CCC(C)CC2)NC1=S (stereo not drawn)	%	2.43
O=C(Cc1c[nH]c2ccccc12)OCCOC(=O)Cc1c[nH]c2ccccc12	%	0.4
Cc1ccc(-n2c(SCC(=O)NCCC3=CCCCC3)nc3n[nH]c(C)c3c2=N)cc1Cl	%	0.45
NNC(=O)c1oc2nc(-c3ccccc3)cc(-c3ccco3)c2c1N	%	79.6
CC(=O)N1N=C(c2ccncc2)OC1(Cc1ccccc1)Cc1ccccc1	%	-0.93
Cc1ccc2c(c1)C(c1ccccc1)N(C(=O)c1ccc(S(=O)(=O)N3CCOCC3)cc1)CC(=O)N2 (stereo not drawn)	%	1.61
COc1cccc(C2CC(c3cccs3)=NN2C(=O)CSC2=NCCS2)c1OC (stereo not drawn)	%	-2.93
Cc1c(C)c2ccc(OCC(=O)N3CCC(C(=O)O)CC3)c(C)c2oc1=O	%	-2.74
COc1ccc(-c2cc3nc(C)c(CCC(=O)NC(C)CCc4ccco4)c(C)n3n2)c(OC)c1 (stereo not drawn)	%	0.65
Cc1c(CC(=O)N2CCN(C(=O)C3COc4ccccc4O3)CC2)c(=O)oc2c(O)c(O)ccc12 (stereo not drawn)	%	51
CN1CCCN(C(=O)C2CCCCC2)CC1	%	1.49
CC(=O)Oc1ccc(N(C(C)=O)S(=O)(=O)c2ccc3ccccc3c2)cc1Br	%	-2.05
COc1ccc(CN(C)C(=S)Nc2ccc(Cl)cc2Cl)cc1	%	-3.43
O=C(Nc1cccc(F)c1)c1cc(-c2ccco2)nc2ccccc12	%	14.1
CCc1ccc(Nc2n[n+](-c3ccccc3)c(-c3cccc(Cl)c3Cl)s2)cc1	%	-1.82
Cc1ccc(CC2S/C(=C(/C#N)C(=O)N3CCOCC3)N(c3ccccc3)C2=O)cc1 (stereo not drawn)	%	27.6
COCCNC(=O)/C(C#N)=C/c1nc(N(C)C)n(-c2ccc(F)cc2)c1Cl	%	1.88
Cc1ccc(Nc2nc(Cl)c(C=O)s2)cc1	%	54.2
Cc1ccc(NC(=O)Nc2nnc(-c3ccncc3)s2)cc1	%	-0.82
NS(=O)(=O)c1ccc(NC(=S)NNC(=O)c2cccs2)cc1	%	-0.11
O=C1Nc2cc(C(=O)N3CCN(c4ccc(F)cc4)CC3)ccc2NC1CSCc1cccc(F)c1 (stereo not drawn)	%	134
CC(C)(Oc1ccc(C2CC2(Cl)Cl)cc1)C(=O)O (stereo not drawn)	%	-2.25
O=C(Nc1ccccc1N1CCCC1)c1ccc(F)c(S(=O)(=O)N2CCOCC2)c1	%	0.87
Cc1c(CC(=O)NCCCCCC(=O)O)c(=O)oc2cc3occ(-c4ccccc4)c3cc12	%	-0.72
O=C(CCc1ccccc1)Nc1ccnn1C1CCN(Cc2ccc(OCCO)cc2)CC1	%	-3.8
N#C/C(C(=O)N1CCOCC1)=C1/SC(Cc2ccc(F)cc2)C(=O)N1c1ccccc1 (stereo not drawn)	%	19.8
CNC(=S)NNC(=O)c1oc2nc(-c3ccccc3)cc(-c3ccco3)c2c1N	%	5.89
CCOC(=O)CNC(=O)/C(=C\c1ccc(F)cc1)NC(=O)c1ccccc1	%	-8.38
CCCCCCc1cc2cc(-c3nnc(-c4ccccc4)o3)c(=O)oc2cc1O	%	133
Cc1ccc(Nc2nc(C)cc(C)c2C(N)=O)cc1	%	-2.11
O=C1OC(/C=C/c2ccccc2)=NC/1=C/c1ccco1	%	1.61

----------
Item-by-item account of inhibition
System: tRNA 2'-phosphotransferase TPT1 (Candida albicans SC5314)
protocol_description: tRNA 2'-phosphotransferase blockers, C. albicans – biochemical, fluorescence polarization, primary screen (AID 1962);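 note: plate controls were DMSO alone for no effect and ferristatin control at 100 nM for full effect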
applied_conditions: recombinant caTPT1, FP RNA substrate dephosphorylation; at 5 µM; active compounds read high
About 2,500 (0.83%) of roughly 300,000 compounds were called active. Many of the other results were omitted from the sample, so actives are more common in it than they were.
property_label: inhibition (%)

compound	reading
C#CCOc1ccc(/C=C2/C(=O)NN(c3ccccc3)C2=O)cc1OC	0.28
COc1ccc(-c2nn(-c3ccccc3)cc2/C=C2/SC(=S)N(CCCC(=O)O)C2=O)c(C)c1	1.54
COc1ccccc1C(=O)NNC(=O)CCN1C(=O)/C(=C\c2ccccc2)SC1=S	-5.63
Oc1ccc(N=Cc2c(O)ccc3ccccc23)cc1	78.9
COc1cc(/C=C2/C(=O)NN(c3ccc(F)cc3)C2=O)cc([N+](=O)[O-])c1O	-1.74
Oc1ccc(N=Cc2sc3ccccc3c2Cl)cc1	-0.62
O=C(Nc1ccc2c(c1)CCC2)c1ccc(Br)s1	-6.11
N#CC(C#N)=CN=c1ccn(Cc2ccc(Cl)cc2Cl)cc1	0.38
COc1cc(NC(=O)C2=CC(c3ccco3)=NS(=O)(=O)N2C)cc(OC)c1OC	-0.29
Cn1ccc(=NC=C(C#N)C#N)c2ccccc21	25.3
CCC(C)CCN1CCN=C1N(C)C (stereo unspecified)	0.6

----------
Item-by-item account of inhibition
System: tRNA 2'-phosphotransferase TPT1 (Candida albicans SC5314)
protocol_description: tRNA 2'-phosphotransferase blockers, C. albicans – biochemical, fluorescence polarization, primary screen (AID 1962);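 note: plate controls were DMSO alone for no effect and ferristatin control at 100 nM for full effect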
applied_conditions: recombinant caTPT1, FP RNA substrate dephosphorylation; at 5 µM; active compounds read high
About 2,500 (0.83%) of roughly 300,000 compounds were called active. Many of the other results were omitted from the sample, so actives are more common in it than they were.

molecule	display_unit	inhibition
COc1ccc(CNC(=O)CCN2C(=O)c3ccccc3C2=O)cc1	%	-3.69
CCN(CC)c1ccc(/C=N/Nc2nc(C)cc(C)n2)c(O)c1	%	25.2
O=C(CN1C(=O)c2ccccc2C1=O)NCc1ccc(C(=O)O)cc1	%	36.6
CN(C)C1=NC[C@H](Cc2ccccc2)N1CCc1ccc(F)cc1	%	-4.71
Cc1cc(C)nc(N/N=C/c2ccncc2)n1	%	3.38
O=C(O)CCC(=O)NCc1ccc(C(=O)O)cc1	%	-6.54
